# TEST TARGET: unphosphorylated VEGF-R2Δ50 (FLVK) (Homo sapiens, UniProt P35968, DEL940-989/E990V)
# Construct: VEGF-R2Δ50 contains residues 806-939 and 990-1171
# Sequence (P35968 with tags, fused parts or gaps DEL940-989/E990V limits assumed): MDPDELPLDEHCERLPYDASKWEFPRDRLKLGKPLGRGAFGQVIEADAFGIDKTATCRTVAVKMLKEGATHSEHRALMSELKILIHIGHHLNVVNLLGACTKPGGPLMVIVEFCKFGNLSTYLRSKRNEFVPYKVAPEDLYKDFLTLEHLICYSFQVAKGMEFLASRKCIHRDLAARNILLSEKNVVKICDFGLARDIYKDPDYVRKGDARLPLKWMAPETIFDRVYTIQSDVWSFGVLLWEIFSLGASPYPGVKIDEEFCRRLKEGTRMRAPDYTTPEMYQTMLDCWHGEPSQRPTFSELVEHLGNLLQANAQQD
# ASSAY INFO: VEGF-R2 coupled spectrophotometric assay, unphosphorylated construct (FLVK)
MEASURE: Ki (pM)
Numbers only, in pM.

q: Identify measured Ki corresponding to Cc1cc2cc(Oc3ccnc4cc(C(=O)N5CCC5)sc34)ccc2n1C(=O)NCCCO [Example 8n]
a: 89

q: Answer with the recorded Ki for the compound listed here: CNC(=O)n1c(C)c(Cl)c2c(F)c(Oc3ccnc4cc(C(=O)N5CC[C@H](O)C5)sc34)ccc21 [Example 6e]
a: 279

q: Given CNC(=O)n1c(C)cc2cc(Oc3ccnc4cc(C(=O)N5C[C@@H](O)[C@@H](O)C5)sc34)ccc21 [Example 4s] , respond with its Ki.
a: 85

q: Consider the compound Cc1cc2cc(Oc3ccnc4cc(C(=O)N5CC[C@H](O)C5)sc34)ccc2n1C(=O)NCCO [Example 9k] . State its measured Ki.
a: 932

q: // fetch Ki given entry CNC(=O)n1c(C)c(Cl)c2c(F)c(Oc3ccnc4cc(C(=O)N5CC[C@H](OC)C5)sc34)ccc21 [Example 6b]
a: 647

q: Return value of Ki for input Cc1cc2cc(Nc3ccnc4cc(C(=O)N5CC[C@H](O)C5)sc34)ccc2n1C(=O)NC1CC1 [Example 1k] , no commentary.
a: 630

Switching to the query record.
q: Dear colleague, please send me the reported Ki for Cc1cc2c(F)c(Oc3ccnc4cc(C(=O)N5CC[C@H](O)C5)sc34)ccc2n1C(=O)NC1CC1 [Example 5j] when you can.
a: 388

* * *

# TEST TARGET: unphosphorylated VEGF-R2Δ50 (FLVK) (Homo sapiens, UniProt P35968, DEL940-989/E990V)
# Construct: VEGF-R2Δ50 contains residues 806-939 and 990-1171; made in house; host or cells: baculovirus/insect cell system
# ASSAY INFO: VEGF-R2 coupled spectrophotometric assay, unphosphorylated construct (FLVK)
# Type: biochemical
# TEST PARAMETERS: percent inhibition at 50 nM
MEASURE: inhibition at 0.05 µM (%)
Give bare numbers, in %.

q: Give the measured inhibition at 0.05 µM for CO[C@H]1CN(C(=O)c2cc3nccc(Nc4ccc5c(c4)cc(C)n5C(=O)NC4CC4)c3s2)C[C@@H]1OC
a: 98

q: Determine from records and report inhibition at 0.05 µM for COC[C@H]1CCCN1C(=O)c1cc2nccc(Nc3ccc4c(c3)cc(C)n4C(=O)NC3CC3)c2s1
a: 97

I have 2 compounds here; please give me inhibition at 0.05 µM for each one.
1. CNC(=O)n1c(C)cc2c(F)c(Oc3ccnc4cc(-c5nc(C(C)(C)O)cs5)sc34)ccc21
2. COC[C@@H]1CCCN1C(=O)c1cc2nccc(Oc3ccc4c(c3)cc(C)n4C(=O)NC3CC3)c2s1

a:
100
97

* * *

# TEST TARGET: unphosphorylated VEGF-R2Δ50 (FLVK) (Homo sapiens, UniProt P35968, DEL940-989/E990V)
# Construct: VEGF-R2Δ50 contains residues 806-939 and 990-1171; made in house; host or cells: baculovirus/insect cell system
# ASSAY INFO: VEGF-R2 coupled spectrophotometric assay, unphosphorylated construct (FLVK)
# Assay type: biochemical
# TEST PARAMETERS: percent inhibition at 50 nM
# Experimental: This construct determines the ability of a test compound to inhibit tyrosine kinase activity. […] The production of ADP from ATP that accompanies phosphoryl transfer was coupled to oxidation of NADH using phosphoenolpyruvate (PEP) and a system having pyruvate kinase (PK) and lactic dehydrogenase (LDH). The oxidation of NADH was monitored by following the decrease of absorbance at 340 nm ([…]=6.22 cm^−1 mM^−1) using a Beckman DU 650 spectrophotometer. […]
MEASURE: inhibition at 0.05 µM (%)
Give bare numbers, in %.

Solved entries:
q: Determine its reported inhibition at 0.05 µM: C#CCNC(=O)n1c(C)cc2cc(Nc3ccnc4cc(C(=O)N5CC[C@@H](O)C5)sc34)ccc21
a: 96

q: Give a short answer stating reported inhibition at 0.05 µM for CNC(=O)n1c(C)cc2cc(Nc3ccnc4cc(C(=O)N5C[C@H](OC)[C@@H](OC)C5)sc34)ccc21 .
a: 93

q: // Input: CNC(=O)n1c(C)cc2cc(Oc3ccnc4cc(C(=O)N5CC[C@@H](N(C)C)C5)sc34)ccc21 . Output its inhibition at 0.05 µM only.
a: 99

q: Supply reported inhibition at 0.05 µM belonging to this compound: CNC(=O)n1c(C)cc2c(F)c(Oc3ccnc4cc(C(=O)N5CC[C@@H](OC)C5)sc34)ccc21
a: 99

q: Kindly indicate its recorded inhibition at 0.05 µM. Item: CNC(=O)n1c(C)c(Cl)c2c(F)c(Oc3ccnc4cc(C(=O)N5CC[C@@H](OC)C5)sc34)ccc21
a: 97

q: Give reported inhibition at 0.05 µM value for C#CCNC(=O)n1c(C)cc2c(F)c(Oc3ccnc4cc(C(=O)N5CC[C@H](OC)C5)sc34)ccc21
a: 99

Others:
q: # return recorded inhibition at 0.05 µM for input CO[C@H]1CN(C(=O)c2cc3nccc(Oc4ccc5c(c4)cc(C)n5C(=O)NCCO)c3s2)CC1F (stereo partly shown)
a: 95
